The reported numbers originate from ChEMBL document CHEMBL1123223.

Target: Gonadotropin-releasing hormone receptor (Rattus norvegicus)
Test: Inhibition of GnRH-mediated LH secretion by cultured pituitary cells
Assay type: functional, cell-based
Conditions: Pituitary gland cell
Reported Relative potency by item:
Answer field: number only, no words.

Below, 2 compounds whose answers are already recorded.
SMILES: CC(=O)N[C@H](Cc1ccc2ccccc2c1)C(=O)N[C@H](Cc1ccc(Cl)cc1)C(=O)N[C@H](Cc1cccnc1)C(=O)N[C@@H](CO)C(=O)N[C@@H](CCCN=C(N)N)C(=O)N[C@H](Cc1c[nH]c2cc([N+](=O)[O-])ccc12)C(=O)N[C@@H](CC(C)C)C(=O)N[C@@H](CCCN=C(N)N)C(=O)N1CCC[C@H]1C(=O)N[C@H](C)C(=O)O
TEST_SYSTEM: Gonadotropin-releasing hormone receptor (Rattus norvegicus)
ASSAY_RESULT: 1.16

SMILES: COc1ccc(C(=O)CC[C@@H](NC(=O)[C@H](Cc2ccc(O)cc2)NC(=O)[C@H](CO)NC(=O)[C@@H](Cc2cccnc2)NC(=O)[C@@H](Cc2ccc(Cl)cc2)NC(=O)[C@H]2CCCN2C(C)=O)C(=O)N(C)[C@@H](CC(C)C)C(=O)N[C@@H](CCCN=C(N)N)C(=O)N2CCC[C@@H]2C(=O)N[C@H](C)C(=O)O)cc1
TEST_SYSTEM: Gonadotropin-releasing hormone receptor (Rattus norvegicus)
ASSAY_RESULT: 0.13

Next up:
Need Relative potency, item CC(=O)N[C@H](Cc1ccc2ccccc2c1)C(=O)N[C@H](Cc1ccc(Cl)cc1)C(=O)N[C@H](Cc1cccnc1)C(=O)N[C@@H](CO)C(=O)N[C@@H](CCCN=C(N)N)C(=O)N[C@H](Cc1ccc2ccccc2c1)C(=O)N[C@@H](CC(C)C)C(=O)N[C@@H](CCCN=C(N)N)C(=O)N1CCC[C@@H]1C(=O)N[C@H](C)C(=O)O
0.88
